- experiment-notes: Half life in rat at 10 mg/kg, po administered with 20% HPbetaCD
- Type: ADME, organism-based
- Parameters: dose 10 mg/kg, route oral
- test-context: in vivo
reported-property: half-life
Number first, unit second: that is the form wanted.

Briefly, half-life measured for `CS(=O)(=O)CC[C@@H]1OCC[C@@]2(S(=O)(=O)c3ccc(Cl)cc3)c3c(F)ccc(F)c3OC[C@@H]12` : 1.1 h

---

- experiment-notes: Cmax in rat at 10 mg/kg, po administered with 20% HPbetaCD
- Format: ADME, organism-based
- Set-up: dose 10 mg/kg, route oral
- test-context: in vivo
reported-property: Cmax

Briefly, Cmax measured for `CS(=O)(=O)CC[C@@H]1OCC[C@@]2(S(=O)(=O)c3ccc(Cl)cc3)c3c(F)ccc(F)c3OC[C@@H]12` : 650 nM

---

- experiment-notes: Selectivity ratio of IC50 for PS2 gamma-secretase to IC50 for PS1 gamma-secretase
reported-property: Ratio IC50
No unit in the answer, only the number.

Briefly, Ratio IC50 measured for `CS(=O)(=O)CC[C@@H]1OCC[C@@]2(S(=O)(=O)c3ccc(Cl)cc3)c3c(F)ccc(F)c3OC[C@@H]12` : 25

Briefly, Ratio IC50 measured for CC(C)S(=O)(=O)CC[C@@H]1OCC[C@@]2(S(=O)(=O)c3ccc(Cl)cc3)c3c(F)ccc(F)c3OC[C@@H]12 (racemic) : 6

Briefly, Ratio IC50 measured for `CCS(=O)(=O)CC[C@@H]1OCC[C@@]2(S(=O)(=O)c3ccc(Cl)cc3)c3c(F)ccc(F)c3OC[C@@H]12` : 26

Briefly, Ratio IC50 measured for CNC(=O)OCC[C@@H]1OCC[C@@]2(S(=O)(=O)c3ccc(Cl)cc3)c3c(F)ccc(F)c3OC[C@@H]12 (racemic) : 3

Briefly, Ratio IC50 measured for N#CCC[C@@H]1OCC[C@@]2(S(=O)(=O)c3ccc(Cl)cc3)c3c(F)ccc(F)c3OC[C@@H]12 (racemic) : 6

---

- experiment-notes: Oral bioavailability in rat at 10 mg/kg administered with 0.4% HPMC
- Format: ADME, organism-based
- test-context: in vivo
reported-property: bioavailability
Number first, unit second: that is the form wanted.

Briefly, bioavailability measured for `CS(=O)(=O)CC[C@@H]1OCC[C@@]2(S(=O)(=O)c3ccc(Cl)cc3)c3c(F)ccc(F)c3OC[C@@H]12` : 6.4%

---

- system-tested: Presenilin-1 (Homo sapiens)
- experiment-notes: Inhibition of PS1 gamma-secretase assessed as reduction of amyloid beta-40 production by membrane based assay
reported-property: IC50 (nM)
Number in nM, nothing else.

Briefly, IC50 measured for CC(C)S(=O)(=O)CC[C@@H]1OCC[C@@]2(S(=O)(=O)c3ccc(Cl)cc3)c3c(F)ccc(F)c3OC[C@@H]12 (racemic) : 24

Briefly, IC50 measured for N#CCC[C@@H]1OCC[C@@]2(S(=O)(=O)c3ccc(Cl)cc3)c3c(F)ccc(F)c3OC[C@@H]12 (racemic) : 22

Briefly, IC50 measured for `CS(=O)(=O)CC[C@H]1OCC[C@]2(S(=O)(=O)c3ccc(Cl)cc3)c3c(F)ccc(F)c3OC[C@H]12` : 377

---

- system-tested: UniProt:P49768
- experiment-notes: Inhibition of PS1 gamma-secretase assessed as reduction of amyloid beta-40 production by membrane based assay
reported-property: log10 of IC50 (log10 of the value in nM)
Heads up: the numbers are on a log10 scale; they represent IC50 in nM.

// returns log10 of IC50 for `CCS(=O)(=O)CC[C@@H]1OCC[C@@]2(S(=O)(=O)c3ccc(Cl)cc3)c3c(F)ccc(F)c3OC[C@@H]12` with UniProt:P49768; value = 0.48

// returns log10 of IC50 for CNC(=O)OCC[C@@H]1OCC[C@@]2(S(=O)(=O)c3ccc(Cl)cc3)c3c(F)ccc(F)c3OC[C@@H]12 (racemic) with UniProt:P49768; value = 0.90

// returns log10 of IC50 for `O=S(=O)(c1ccc(Cl)cc1)[C@@]12CCO[C@@H](CCO)[C@@H]1COc1c(F)ccc(F)c12` with UniProt:P49768; value = 1.30

// returns log10 of IC50 for `CC(C)S(=O)(=O)CC[C@@H]1OCC[C@@]2(S(=O)(=O)c3ccc(Cl)cc3)c3c(F)ccc(F)c3OC[C@@H]12` with UniProt:P49768; value = 0.78

// returns log10 of IC50 for `CS(=O)(=O)CC[C@@H]1OCC[C@@]2(S(=O)(=O)c3ccc(Cl)cc3)c3c(F)ccc(F)c3OC[C@@H]12` with UniProt:P49768; value = 0.11

// returns log10 of IC50 for CCNC(=O)OCC[C@@H]1OCC[C@@]2(S(=O)(=O)c3ccc(Cl)cc3)c3c(F)ccc(F)c3OC[C@@H]12 (racemic) with UniProt:P49768; value = 1.38

// returns log10 of IC50 for `O=S(=O)(c1ccc(Cl)cc1)[C@]12CCO[C@H](CCO)[C@H]1COc1c(F)ccc(F)c12` with UniProt:P49768; value = 2.51

---

- experiment-notes: Half life in dog at 5 mg/kg, po administered with 0.4% HPMC
- test-context: in vivo
reported-property: half-life (h)
Number in h, nothing else.

Briefly, half-life measured for `CS(=O)(=O)CC[C@@H]1OCC[C@@]2(S(=O)(=O)c3ccc(Cl)cc3)c3c(F)ccc(F)c3OC[C@@H]12` : 23.9

---

- experiment-notes: Tmax in dog at 5 mg/kg, po administered with 0.4% HPMC
- test-context: in vivo
reported-property: Tmax (h)
Number in h, nothing else.

Briefly, Tmax measured for `CS(=O)(=O)CC[C@@H]1OCC[C@@]2(S(=O)(=O)c3ccc(Cl)cc3)c3c(F)ccc(F)c3OC[C@@H]12` : 2

---

- system-tested: Presenilin-1 (Homo sapiens)
- experiment-notes: Inhibition of PS1 gamma-secretase expressed in HEK cells harboring Awe-Lon gene assessed as reduction of amyloid beta-40 production
- Type: cell-based, HEK293
Exercise: state measured pIC50 for each of the compounds provided.
The quantity pIC50 is defined as the negative base-10 logarithm of the molar concentration.

// returns pIC50 for `O=S(=O)(c1ccc(Cl)cc1)[C@@]12CCO[C@@H](CCO)[C@@H]1COc1c(F)ccc(F)c12` with Presenilin-1 (Homo sapiens); value = 7.74

// returns pIC50 for N#CCC[C@@H]1OCC[C@@]2(S(=O)(=O)c3ccc(Cl)cc3)c3c(F)ccc(F)c3OC[C@@H]12 (racemic) with Presenilin-1 (Homo sapiens); value = 7.43

// returns pIC50 for `CC(C)S(=O)(=O)CC[C@@H]1OCC[C@@]2(S(=O)(=O)c3ccc(Cl)cc3)c3c(F)ccc(F)c3OC[C@@H]12` with Presenilin-1 (Homo sapiens); value = 8.10

// returns pIC50 for `CCS(=O)(=O)CC[C@@H]1OCC[C@@]2(S(=O)(=O)c3ccc(Cl)cc3)c3c(F)ccc(F)c3OC[C@@H]12` with Presenilin-1 (Homo sapiens); value = 8.30

// returns pIC50 for CCNC(=O)OCC[C@@H]1OCC[C@@]2(S(=O)(=O)c3ccc(Cl)cc3)c3c(F)ccc(F)c3OC[C@@H]12 (racemic) with Presenilin-1 (Homo sapiens); value = 7.32

// returns pIC50 for `CS(=O)(=O)CC[C@@H]1OCC[C@@]2(S(=O)(=O)c3ccc(Cl)cc3)c3c(F)ccc(F)c3OC[C@@H]12` with Presenilin-1 (Homo sapiens); value = 8.40

// returns pIC50 for CNC(=O)OCC[C@@H]1OCC[C@@]2(S(=O)(=O)c3ccc(Cl)cc3)c3c(F)ccc(F)c3OC[C@@H]12 (racemic) with Presenilin-1 (Homo sapiens); value = 8.10

// returns pIC50 for CC(C)S(=O)(=O)CC[C@@H]1OCC[C@@]2(S(=O)(=O)c3ccc(Cl)cc3)c3c(F)ccc(F)c3OC[C@@H]12 (racemic) with Presenilin-1 (Homo sapiens); value = 7.59

---

- experiment-notes: Clearance in dog at 2.5 mg/kg, iv administered with 0.4% HPMC
- Assay type: ADME, organism-based, Canis lupus familiaris
- Parameters: dose 2.5 mg/kg, route intravenous
- test-context: in vivo
reported-property: clearance (mL/min/kg)
Number in mL/min/kg, nothing else.

Briefly, clearance measured for `CS(=O)(=O)CC[C@@H]1OCC[C@@]2(S(=O)(=O)c3ccc(Cl)cc3)c3c(F)ccc(F)c3OC[C@@H]12` : 1.7

---

- experiment-notes: Clearance in rat at 5 mg/kg, iv administered with 20% HPbetaCD
- Assay type: ADME, organism-based
- Design: dose 5 mg/kg, route intravenous
- test-context: in vivo
reported-property: clearance (mL/min/kg)
Number in mL/min/kg, nothing else.

Briefly, clearance measured for `CS(=O)(=O)CC[C@@H]1OCC[C@@]2(S(=O)(=O)c3ccc(Cl)cc3)c3c(F)ccc(F)c3OC[C@@H]12` : 69
